test: qHTS assay for identifying genotoxic compounds that show differential cytotoxicity against isogenic chicken DT40 cell lines with known DNA damage response pathways - Rev3 mutant cell line (AID 743014); conditions: chicken DT40 Rev3-/- viability, CellTiter-Glo, 40 h; series mostly up to 68.4 µM; further: nearly all actives have a fitted effect of over 55% in size
Results filed as inconclusive are left out. Calls of active or inactive are those of the source. The call rests on the fitted dose curve; in most records, active means well fitted cell-killing curve with a large enough effect in the repeat runs; inconclusive means weak or mixed curves, or effect the other way; inactive means no such curve, though single readings can be large or run the other way.
Your answer must be one of the following: Y for active, N for inactive

Query: For CCCCCCOC(=O)c1ccc(O)cc1 , which call appears in the assay record?
Result: Y

Query: For O=[N+]([O-])c1cc([N+](=O)[O-])c2ccc(S(=O)(=O)O)cc2c1O , which call appears in the assay record?
Result: N

Query: For O=C(O)c1cc(O)c2c(c1)C(=O)c1cccc(O)c1C2=O , which call appears in the assay record?
Result: N

Query: For Nc1c(Cl)cc(Cl)cc1Cl , which call appears in the assay record?
Result: N

Query: For CCC(N)(CO)CO , which call appears in the assay record?
Result: N

Query: For Cc1cc(O)c(Cl)c(C)c1Cl , which call appears in the assay record?
Result: Y

Query: For COc1cccc(N)c1 , which call appears in the assay record?
Result: N

---

assay: qHTS RealTime-Glo MT Cell Viability Assay in HEK293 cells - 24 hour (AID 1224886); settings: RealTime-Glo luminescence; series mostly up to 76.8 µM; further: nearly all actives have a fitted effect of over 50% in size
Results filed as inconclusive are left out. Activity calls are given as the source filed them. Calls follow the shape of the dose curve; as a rule, active = well fitted cell-killing curve with a large enough effect in the repeat runs; inconclusive = weak or mixed curves, or effect the other way; inactive = flat fitted curve, though single readings scatter.
Your answer must be one of the following: active, inactive

Query: For O=C(OCC(COC(=O)c1ccccc1)(COC(=O)c1ccccc1)COC(=O)c1ccccc1)c1ccccc1 , which call appears in the assay record?
Result: active

Query: For O=C(Oc1cccc2cccnc12)c1ccccc1 , which call appears in the assay record?
Result: inactive

Query: For N=C1N=C(N)c2cc3ccccc3cc21 , which call appears in the assay record?
Result: active

Query: For CC[C@@]1(O)C(=O)OCc2c1cc1n(c2=O)Cc2c-1nc1ccccc1c2/C=N/OC(C)(C)C , which call appears in the assay record?
Result: active

Query: For CCCCCCCC/C=C/CCCCCCCC1=NCCN1CCO , which call appears in the assay record?
Result: active

Query: For CC(C)c1ccc2c(c1)CC[C@H]1[C@](C)(CN)CCC[C@]21C , which call appears in the assay record?
Result: active

Query: For Cc1ccc(O)c(C(C)(C)C)c1 , which call appears in the assay record?
Result: inactive

Query: For COc1c(C)c2c(c(O)c1C/C=C(\C)CCC(=O)O)C(=O)OC2 , which call appears in the assay record?
Result: inactive

Query: For COC(=O)C1=C(C)NC(C)=C(C(=O)OCCc2ccc(N3CCN(C(c4ccccc4)c4ccccc4)CC3)cc2)C1c1cccc([N+](=O)[O-])c1 (stereo unspecified) , which call appears in the assay record?
Result: inactive

Query: For CCC(N)(CO)CO , which call appears in the assay record?
Result: inactive

Query: For Cc1cc(O)c(C(C)(C)C)cc1C(C)(C)C , which call appears in the assay record?
Result: active

---

experiment: qHTS assay to identify small molecule antagonists of the androgen receptor (AR) signaling pathway using the MDA cell line - cell viability counter screen (AID 743041; further: nearly all actives have a fitted effect of over 45% in size); conditions: MDA-kb2 viability, CellTiter-Fluor, 16 h, cells co-treated with R1881 androgen agonist; series mostly up to 70.3 µM
Inconclusive results are not listed. Active and inactive are the calls of the source. The call rests on the fitted dose curve; in most records, active means well fitted cell-killing curve with a large enough effect in the repeat runs; inconclusive means weak or mixed curves, or effect the other way; inactive means flat fitted curve, though single readings scatter.
Your answer must be one of the following: 1 (active), 0 (inactive)

Query: For CCCCCCCCCCCCCCCCCC[N+](C)(C)C , which call appears in the assay record?
Result: 1

Query: For NC(=O)CC[C@@H]1NC(=O)[C@H](Cc2ccccc2)NC(=O)[C@H](Cc2ccc(O)cc2)NC(=O)CCSSC[C@@H](C(=O)N2CCC[C@H]2C(=O)N[C@@H](CCCN=C(N)N)C(=O)NCC(N)=O)NC(=O)[C@H](CC(N)=O)NC1=O , which call appears in the assay record?
Result: 0

Query: For Cc1cc(O)c(C(C)(C)C)cc1C(C)(C)C , which call appears in the assay record?
Result: 1

Query: For O=C1c2c(O)ccc(Nc3ccc(CCO)cc3)c2C(=O)c2c([N+](=O)[O-])ccc(O)c21 , which call appears in the assay record?
Result: 0

Query: For CCCCCOC(=O)CCCC , which call appears in the assay record?
Result: 0

Query: For CC/C(=C(\c1ccc(O)cc1)c1ccc(OCCN(C)C)cc1)c1ccccc1 , which call appears in the assay record?
Result: 0

Query: For O=[N+]([O-])c1cc(Cl)c(Cl)c(Cl)c1Cl , which call appears in the assay record?
Result: 0

Query: For CCCCCCCCCCC=O , which call appears in the assay record?
Result: 0

Query: For Oc1c(Cl)cc(Cl)c2cccnc12 , which call appears in the assay record?
Result: 1

Query: For CCC(C)(C)C1CCCCC1OC(C)=O (stereo not drawn) , which call appears in the assay record?
Result: 0

Query: For NNC(=O)c1cccc(C(=O)NN)c1 , which call appears in the assay record?
Result: 0

Query: For O=C(O)c1ccc(Cl)c(Cl)c1 , which call appears in the assay record?
Result: 0

Query: For C[n+]1cc2c3c(ccc2c2ccc4cc5c(cc4c21)OCO5)OCO3 , which call appears in the assay record?
Result: 1

Query: For CCOC(=O)O[C@H](C)OC(=O)c1ccc2c(c1)cc(C(=O)NC1CCN(C(C)C)CC1)n2Cc1cc(-c2ccc(Cl)s2)on1 , which call appears in the assay record?
Result: 1

Query: For CC1=C(C(=O)OC(C)C)C(c2cccc([N+](=O)[O-])c2)C(C(=O)OC2CN(C(c3ccccc3)c3ccccc3)C2)=C(N)N1 (stereo not drawn) , which call appears in the assay record?
Result: 0

Query: For CCCCCCCCOC(=O)c1ccc(O)cc1 , which call appears in the assay record?
Result: 0

Query: For CCCCCCCCCCCC[N+](C)(C)CCCCCCCCCCCC , which call appears in the assay record?
Result: 1

Query: For O=C1c2ccccc2Cc2ccccc21 , which call appears in the assay record?
Result: 0

Query: For Cc1cc(C2CCCCC2)n(O)c(=O)c1 , which call appears in the assay record?
Result: 0

Query: For N=C1C=CC(=C(c2ccc(N)cc2)c2ccc(N)cc2)C=C1 , which call appears in the assay record?
Result: 1

Query: For CCOC(=O)c1nc(C(Cl)(Cl)Cl)n(-c2ccc(Cl)cc2Cl)n1 , which call appears in the assay record?
Result: 0

Query: For CCCCC(CC)COP(=O)(O)OCC(CC)CCCC (stereo not drawn) , which call appears in the assay record?
Result: 0

Query: For Cc1ccc(O)c2ncccc12 , which call appears in the assay record?
Result: 1

---

assay: qHTS assay to identify small molecule antagonists of the estrogen receptor alpha (ER-alpha) signaling pathway - cell viability counter screen (AID 743074); conditions: ERalpha-bla HEK293 viability, CellTiter-Glo luminescence, 18 h; series mostly up to 69.4 µM;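 further: HEK293 cells carrying ER-alpha-UAS-bla reporter stimulated with 17beta-estradiol; nearly all actives have a fitted effect of over 45% in size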; further: potency means the concentration at half of the fitted maximal effect
Records with an inconclusive call do not appear. Calls of active or inactive are those of the source. Calls come from the whole dose curve.
Experimental endpoint: Potency

As a guide, the following entries are already answered.
{"columns": ["Compound", "Potency"],
 "data": [
  ["Cc1cc(N)c(S(=O)(=O)O)cc1Cl", "inactive"],
  ["CC(C)CCCCCCCCCCCCCCC(=O)O", "inactive"],
  ["CCOc1ccc2nc3cc(N)ccc3c(N)c2c1", "inactive"],
  ["Cc1cccc(S(=O)(=O)O)c1C", "inactive"],
  ["Cc1cccc(CN2CCN(C(c3ccccc3)c3ccc(Cl)cc3)CC2)c1 (configuration not stated)", "inactive"],
  ["COC(=O)C1=C(C)NC(C)=C(C(=O)OCC(C)C)C1c1ccccc1[N+](=O)[O-] (configuration not stated)", "inactive"],
  ["CCCCCCCCCCCCCCCCCC[N+](C)(C)C", "43.8 µM (active)"],
  ["NNc1nc(-c2ccc(N)cc2)cs1", "inactive"],
  ["CC[C@H](c1ccc(O)cc1)[C@@H](CC)c1ccc(O)cc1", "inactive"],
  ["COc1cccc(N)c1", "inactive"]
]}

Query: Give the value of Potency reported for the following: CCCCCCCCOC(=O)c1ccc(O)cc1
Result: inactive

Query: Give the value of Potency reported for the following: COc1cc(-c2nc(NC(=O)c3cc4cc(C)cc(C)c4n3CC(=O)O)sc2CCC2CCCCC2)c(OC)cc1Cl
Result: 28.3 µM (active)

---

experiment: qHTS assay to identify small molecule antagonists of the estrogen receptor alpha (ER-alpha) signaling pathway using the BG1 cell line - cell viability counter screen (AID 743081); details: BG1Luc4E2 viability, CellTiter-Fluor, 22 h; series mostly up to 70.3 µM;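 further: compound given together with 17beta-estradiol as the ER stimulus; nearly all actives have a fitted effect of over 45% in size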
Inconclusive results are not listed. Calls of active or inactive are those of the source. Calls come from the whole dose curve; as a rule, active = well fitted cell-killing curve with a large enough effect in the repeat runs; inconclusive = weak or mixed curves, or effect the other way; inactive = flat fitted curve, though single readings scatter.
Your answer must be one of the following: True (active), False (inactive)

Query: For Cc1cc(O)c(C(C)(C)C)cc1C(C)(C)C , which call appears in the assay record?
Result: False

Query: For OCCCCCCCCCCCCBr , which call appears in the assay record?
Result: False

Query: For C=CC(=O)OCC(CO)(COCC(COC(=O)C=C)(COC(=O)C=C)COC(=O)C=C)COC(=O)C=C , which call appears in the assay record?
Result: True

Query: For Cc1onc(-c2c(Cl)cccc2Cl)c1C(=O)N[C@@H]1C(=O)N2[C@@H]1SC(C)(C)[C@@H]2C(=O)O , which call appears in the assay record?
Result: False

Query: For CCCCCCCCCCCCCC[P+](CCCC)(CCCC)CCCC (tested in a mixture with another compound) , which call appears in the assay record?
Result: True

Query: For CSc1ccc2c(c1)C(N1CCN(C)CC1)Cc1ccccc1S2 (stereo unspecified) , which call appears in the assay record?
Result: False

Query: For O=c1cccccc1O , which call appears in the assay record?
Result: False

Query: For CC(C)(C)c1ccc(C(=O)O)cc1 , which call appears in the assay record?
Result: False

Query: For Fc1ccc(C(c2ccc(F)cc2)N2CCN(C/C=C/c3ccccc3)CC2)cc1 , which call appears in the assay record?
Result: False

Query: For O=c1[nH]cnc2nc[nH]c12 , which call appears in the assay record?
Result: False

Query: For Cc1cc(CCN2CCN(c3nsc4ccccc34)CC2)cc2c1NC(=O)CC2(C)C , which call appears in the assay record?
Result: True
